The measurements presented in this section are drawn from the supplement of paper PMC6555819.

System: LXRa homodimer (NR concentration 270 nM)
Test Details: PBM binding z-score (relative to random genomic background probes); higher = stronger binding; sequences stand for … in GC…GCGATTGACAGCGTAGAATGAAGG
So basically every entry gets a class from its PBM binding z-score, ranges being low interval: < -0.07; middle interval: ≥ -0.07 and < 1; high interval: ≥ 1

>  <Ordered Residues>
TCGAGTATGTTACGGGGGCATTCAGGGATGAAGA

>  <Class Label>
middle interval

$$$$
>  <Ordered Residues>
CGACCTAGGTCAAAGGACAGTGAAAGGCGACGTA

>  <Class Label>
low interval

$$$$
>  <Ordered Residues>
CGAACTAGGTCACCAGGACCGTGAAGAGGTTGGA

>  <Class Label>
low interval

$$$$
>  <Ordered Residues>
CGAACTAGGTCAAAGCACAGTGAAAGGCGACGTA

>  <Class Label>
low interval

$$$$
>  <Ordered Residues>
GATACACGGTCAAGGCCAGAGTACGCGTATTGAT

>  <Class Label>
low interval

$$$$
>  <Ordered Residues>
CCTTACGGGTCTAGGTTATAGCACGGGTGGTACG

>  <Class Label>
middle interval

$$$$
>  <Ordered Residues>
ATATGTAGGTTAGCTGGAGTCATTCAGACTAGGC

>  <Class Label>
middle interval

$$$$
>  <Ordered Residues>
TCCAGTAGGTTACGGGGGCATTCAGGGATGAAGA

>  <Class Label>
high interval

$$$$

Kindly identify the class of CAAACTAGGTCACGAAAGGTCAAAGTTGAATGAC .
high interval

Kindly identify the class of GCTGCTAGGTCAGGTTGGTCAGCTAACGGGTACG .
middle interval

Kindly identify the class of CCTACTGGGCCATCAGGTGATTGATATCAACGTT .
low interval

Kindly identify the class of AACGAAAGGTCGACGAGGTGAGTATACACCGTTT .
middle interval

Kindly identify the class of ATATGTAGGTGAAGGGTCATTCAGGTTGGTTCGC .
high interval

Kindly identify the class of CAGACTAGGTCAAAGGTCAAAGTCGAGCCAACCA .
high interval

Kindly identify the class of CCTACTGGGCCAAGCTCATTGATCAGTCAAAGCA .
low interval

Kindly identify the class of CGTCCAAGCTCAGCAGGTCAGTGAAAGCGACGTG .
low interval

Kindly identify the class of CCTACTGGGGCAAAGGTCATTGATTCCAATGCTC .
high interval

Kindly identify the class of ACTTACGGGTCAACGAAGTTATAGCACGCGTATA .
middle interval

----------
Test system: LXRb:RXRa (NR concentration 270 nM, RXRa partner concentration 90 nM)
Test Details: PBM binding z-score (relative to random genomic background probes); higher = stronger binding; sequences stand for … in GC…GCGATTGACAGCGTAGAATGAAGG
Measure Name: PBM binding z-score
Enter a number only.

>  <Ordered Residues>
CCTAGCAGGCGAGGGTCACTCAAGCATTTCGCTT

>  <Result Value>
1.56

$$$$
>  <Ordered Residues>
TTACCAAGGTGAAAGGTCGTTGAGGCACGCCTTG

>  <Result Value>
2.74

$$$$
>  <Ordered Residues>
TCGAGTAGGTTACGGCGGCATTCAGGGATGAAGA

>  <Result Value>
0.0226

$$$$
>  <Ordered Residues>
ACTAGTAGGCCAAGGGTCACTCAAGATTAGTCCG

>  <Result Value>
2.98

$$$$
>  <Ordered Residues>
AGTCAAAGGTCAGGACGAGGTAACGTAAAGCACG

>  <Result Value>
4.9

$$$$

Return PBM binding z-score (reported value) for this sequence: AATACAGGGTCACTGGGCCAGAGTAGGTACGAAT
4.21

----------
Measured PBM binding z-score accompanies every entry in the list below.
Test system: VDR:RXRa (NR concentration 270 nM, RXRa partner concentration 90 nM)
Test Details: PBM binding z-score (relative to random genomic background probes); higher = stronger binding; sequences stand for … in GC…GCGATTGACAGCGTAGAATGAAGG
Enter a number only.

>  <Ordered Residues>
GCTAGTAGGTCAGTAAAAGGTCACACACCGGTCG

>  <PBM binding z-score>
4.99

$$$$
>  <Ordered Residues>
CCTAGTAGGTTATGGGGCATTCAGGCAACGGTGA

>  <PBM binding z-score>
0.233

$$$$
>  <Ordered Residues>
CCTACTGGGCCACGAAAGGTCCTTGATTCAGTGA

>  <PBM binding z-score>
-0.615

$$$$
>  <Ordered Residues>
CAATCTAGGTCAAAGGTCAAAGTCGAGCCAACCA

>  <PBM binding z-score>
6.74

$$$$
>  <Ordered Residues>
CGAACTAGGTGAAAGGACAGTGAAAGGCGACGTA

>  <PBM binding z-score>
-0.353

$$$$
>  <Ordered Residues>
CGAACTAGGTCACGAGGACAGTGAAGAGGTTGGA

>  <PBM binding z-score>
2.75

$$$$

System VDR:RXRa (NR concentration 270 nM, RXRa partner concentration 90 nM). Read-out PBM binding z-score. Item ATATGTAGGTTAGGCTCATTCAGAAAGTAGGGAA . Report value.
-0.124

System VDR:RXRa (NR concentration 270 nM, RXRa partner concentration 90 nM). Read-out PBM binding z-score. Item TCTCGGAGGACACGAAAGGGCAGAGCTCGACATC . Report value.
-0.0327

System VDR:RXRa (NR concentration 270 nM, RXRa partner concentration 90 nM). Read-out PBM binding z-score. Item CTATGTTGGTTAAGGGGGTCATTCAGTTTGAAAG . Report value.
6.64

System VDR:RXRa (NR concentration 270 nM, RXRa partner concentration 90 nM). Read-out PBM binding z-score. Item TAGCATAGGTCATGCGGGCCAGTATAGTGTCGGC . Report value.
4.32

System VDR:RXRa (NR concentration 270 nM, RXRa partner concentration 90 nM). Read-out PBM binding z-score. Item CAAAGTAGGTCAAGGTCAAAGTCGGTTTGTGCCA . Report value.
5.27

----------
Tested on: PPARa:RXRa (NR concentration 270 nM, RXRa partner concentration 90 nM)
Test Details: PBM binding z-score (relative to random genomic background probes); higher = stronger binding; sequences stand for … in GC…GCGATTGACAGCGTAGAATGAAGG
So basically every entry gets a class from its PBM binding z-score, ranges being interval 1 = under 4, interval 2 = from 4 up to 6, interval 3 = 6 and over

Some solved cases for reference:
>  <Ordered Residues>
CGAACTTGGTCACCAGGACAGTGAAGAGGTTGGA

>  <Class Label>
interval 1

$$$$
>  <Ordered Residues>
CTATGTAGCTTAAGGGGGTCATTCAGTTTGAAAG

>  <Class Label>
interval 2

$$$$
>  <Ordered Residues>
CCTCGGAGGACACCAGGAGGTCAGAGCTGCCAGA

>  <Class Label>
interval 1

$$$$

Kindly identify the class of CGAACTAGGTCACCACGACAGTGAAGAGGTTGGA .
interval 2

Kindly identify the class of CGAACTAGGTCAAAGGACGGTGAAAGGCGACGTA .
interval 2

Kindly identify the class of TTACAAAGGTGAGCTGAGGTCGTTGATCCAACTC .
interval 1

Kindly identify the class of CTATGTAGGTTAAGGGGTTCATTCAGTTTGAAAG .
interval 2

Kindly identify the class of CTTAGTTGGTCAGGAGGTCACACACCGGATATGA .
interval 2

Kindly identify the class of GCTCGGAGGACAAGGTCAGGGCTTTGTCCGTAGA .
interval 1

Kindly identify the class of CACACTAGGTCAAGAGGTCAAAGTCCGCTTCCCG .
interval 3

Kindly identify the class of CCGATTAGGTTACGAGGGGGCATTCAGTGCGAAT .
interval 1

Kindly identify the class of TCTCGGAGGACACGAAGGTCAGCGCTTTCCAGAG .
interval 1

Kindly identify the class of ATATGTAGGTTAGGGTCGTTCAGAAAGTAGGGAA .
interval 2

Kindly identify the class of CAAACTAGGTCACAGAGGACAAAGTCCGTGCGTA .
interval 2

Kindly identify the class of ATCGAACGGTCGAGGTGAGTATAGAGAAAGGGAA .
interval 1

Kindly identify the class of CGGCCAAGGTCAAAGGTCAGTGAAGAGATGACGG .
interval 3

Kindly identify the class of CAAACTAGGTCAAAGGTCAGAGTCGAGCCAACCA .
interval 3

----------
Tested on: PXR:RXRa (NR concentration 270 nM, RXRa partner concentration 90 nM)
Test Details: PBM binding z-score (relative to random genomic background probes); higher = stronger binding; sequences stand for … in GC…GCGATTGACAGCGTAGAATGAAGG
Label rule, in plain words: PBM binding z-score of 5 and up is class 1, under 5 is class 0.

Some solved cases for reference:
>  <Ordered Residues>
TCGAGTCGGTTACGGGGGCATTCAGGGATGAAGA

>  <Assayed Target>
PXR:RXRa (NR concentration 270 nM, RXRa partner concentration 90 nM)

>  <Class Label>
class 0

$$$$
>  <Ordered Residues>
CGCACTAGGTCACCAGGACAGTGAAGAGGTTGGA

>  <Assayed Target>
PXR:RXRa (NR concentration 270 nM, RXRa partner concentration 90 nM)

>  <Class Label>
class 0

$$$$
>  <Ordered Residues>
TCAGATAGGTAAAGGTGAAAGTCGAACGATATGA

>  <Assayed Target>
PXR:RXRa (NR concentration 270 nM, RXRa partner concentration 90 nM)

>  <Class Label>
class 0

$$$$

Hello, I need to know if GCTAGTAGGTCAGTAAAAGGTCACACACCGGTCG has measured PBM binding z-score not below 5. Thanks!
class 1

Hello, I need to know if CGTCAAAGTTAAAGGTAACGTAACAGAAAGCAGC has measured PBM binding z-score not below 5. Thanks!
class 0

Hello, I need to know if CCTTACGGGTCACTCCAGGTTCTAGCATCGGAGT has measured PBM binding z-score not below 5. Thanks!
class 0

Hello, I need to know if ATATGTAGGTTAGGGTCATTCACAAAGTAGGGAA has measured PBM binding z-score not below 5. Thanks!
class 0

Hello, I need to know if GCTGCTAGGTCAGGTTGGTCGGCTAACGGGTACG has measured PBM binding z-score not below 5. Thanks!
class 0

Hello, I need to know if CAAACTAGGTCACCAGGACAGTGAAGAGGTTGGA has measured PBM binding z-score not below 5. Thanks!
class 0

Hello, I need to know if CTATTTAGGTTAAGGGGGTCATTCAGTTTGAAAG has measured PBM binding z-score not below 5. Thanks!
class 1

Hello, I need to know if AGTCAAAGTTCATCTAGGTAACGAAAGATATGCT has measured PBM binding z-score not below 5. Thanks!
class 1

Hello, I need to know if TCGAGTAGGTTACGGTGGCATTCAGGGATGAAGA has measured PBM binding z-score not below 5. Thanks!
class 0
